- System: methicillin-resistant Staphylococcus aureus (MRSA)
- assay-notes: Determination of MIC values (BHI broth, 96 well microtiter plate)
- Assay type: cell-based
- assay-setup: Staphylococcus aureus, MRSA; BHI broth, overnight 37° C.; read-out: MIC MRSA
- Procedure: Stock solutions of compounds are prepared with a concentration of 10 mg/mL. These solutions are then diluted 1:4 to give a concentration of 2.5 mg/mL. The compounds are then serially diluted 1:2 for 6 iterations. The concentrations made for each compound are 2.5, 1.25, 0.625, 0.3125, 0.156, 0.078, and 0.039 mg/mL. A control sample (no compound) is run along with each compound tested. All dilutions are made in DMSO. […]
observed-property: MIC

Answered cases to consult:
Find the recorded MIC belonging to NCCNC(=O)c1cc(-c2c[nH]c3ccc(Cl)cc23)nc2c(Br)cccc12 and report it. < 7 µg/mL

Proceed to Clc1ccc2c(-c3cc(Cl)c4ccccc4n3)c[nH]c2c1 < 7 µg/mL

Proceed to Cn1cc(-c2cc(C(=O)NCc3ccc(CN)cc3)c3ccc(I)cc3n2)c2cc(Br)ccc21 > 25 µg/mL

Now for another entry.
Find the recorded MIC belonging to NCC1CCCC(CNC(=O)c2cc(-c3c[nH]c4ccc(Br)cc34)nc3c(Cl)c(Cl)ccc23)C1 (stereo not shown) and report it. < 7 µg/mL

---

- Tested on: Streptococcus pneumoniae
- assay-notes: Determination of MIC values (BHI broth, 96 well microtiter plate)
- Format: cell-based
- assay-setup: Streptococcus pneumoniae; BHI broth, 37° C., about 16 hours; read-out: MIC S. pneu
observed-property: MIC

Answered cases to consult:
Find the recorded MIC belonging to OCc1cc(-c2c[nH]c3ccc(Br)cc23)nc2ccccc12 and report it. < 7 µg/mL

Proceed to Fc1ccc2c(CCl)cc(-c3c[nH]c4ccc(Br)cc34)nc2c1 < 7 µg/mL

Proceed to N#CCc1cc(-c2c[nH]c3ccc(Br)cc23)nc2cc(Cl)ccc12 < 7 µg/mL

Proceed to NCc1cc(-c2c[nH]c3ccc(Br)cc23)nc2cc(F)ccc12 < 7 µg/mL

Proceed to OCc1cc(-c2c[nH]c3ccc(Br)cc23)nc2ccc(F)cc12 < 7 µg/mL

Proceed to Brc1ccc2[nH]cc(-c3nc4ccc(C#CCN5CCCCC5)cc4c4c3CCO4)c2c1 < 7 µg/mL

Proceed to Clc1cc(-c2c[nH]c3ccccc23)nc2ccccc12 < 7 µg/mL

Proceed to CNCCN(C)C(=O)c1cc(-c2c[nH]c3ccc(Br)cc23)nc2cc(Cl)c(C#CCN3CCCCC3)cc12 < 7 µg/mL

For every record below, what is its MIC?
1. Cn1cc(-c2cc(C(=O)NCCN)c3cc(C#CCN4CCc5ccccc5C4)ccc3n2)c2cc(Br)ccc21
2. Clc1ccc2c(Cl)cc(-c3c[nH]c4cc(Cl)ccc34)nc2c1

1. < 7 µg/mL
2. 25 µg/mL

---

- Tested on: Streptococcus pneumoniae
- assay-notes: Determination of MIC values (BHI broth, 96 well microtiter plate)
- Assay type: cell-based
- assay-setup: Streptococcus pneumoniae; S. pneu; BHI broth, overnight 37° C.; read-out: MIC S. pneu
Kindly state MIC for each of the entries shown.

Answered cases to consult:
Find the recorded MIC belonging to NCCNC(=O)c1cc(-c2c[nH]c3ccc(Br)cc23)nc2cc(F)ccc12 and report it. < 7 µg/mL

Proceed to NCc1ccc(CNC(=O)c2cc(-c3c[nH]c4ccc(Br)cc34)nc3ccc(C#CCN4CCc5ccccc5C4)cc23)cc1 > 25 µg/mL

Proceed to Brc1ccc2c(CNCc3ccccc3)cc(-c3c[nH]c4ccc(Br)cc34)nc2c1 < 7 µg/mL

Proceed to NCc1ccc(CNC(=O)c2cc(-c3c[nH]c4ccc(Br)cc34)c3ccccc3n2)cc1 < 7 µg/mL

Proceed to NCc1ccc(CNC(=O)c2cc(-c3c[nH]c4ccc(Br)cc34)nc3ccc(C#CCNCCc4ccccc4)cc23)cc1 < 7 µg/mL

For every record below, what is its MIC?
1. COc1ccc2[nH]cc(-c3ccc4cc(Cl)ccc4n3)c2c1
2. Clc1ccc2nc(-c3c[nH]c4ccc(OCc5ccccc5)cc34)ccc2c1

1: > 25 µg/mL; 2: < 7 µg/mL

For every record below, what is its MIC?
1. NCC1CCC(CNC(=O)c2cc(-c3c[nH]c4ccc(Cl)cc34)nc3ccc(I)cc23)CC1 (centres unmarked)
2. Clc1ccc2nc(-c3c[nH]c4ccc(Cl)cc34)ccc2c1
3. NCc1ccc(CNC(=O)c2cc(-c3c[nH]c4ccc(Cl)cc34)nc3cc(Br)ccc23)cc1
4. Cn1cc(-c2cc(C(=O)NCC3CCC(CN)CC3)c3cc(Cl)ccc3n2)c2cc(Br)ccc21 (centres unmarked)
5. NCc1ccc(/C=C/c2cc(-c3c[nH]c4ccc(Br)cc34)nc3cc(Br)ccc23)cc1
6. NCc1ccc(CNC(=O)c2cc(-c3c[nH]c4ccc(Cl)cc34)nc3ccc(I)cc23)cc1
7. Fc1cccc2[nH]cc(-c3cc(Cl)c4ccccc4n3)c12

1. < 7 µg/mL
2. < 7 µg/mL
3. < 7 µg/mL
4. < 7 µg/mL
5. < 7 µg/mL
6. < 7 µg/mL
7. < 7 µg/mL

For every record below, what is its MIC?
1. N#Cc1ccc2[nH]cc(-c3cc(Cl)c4ccccc4n3)c2c1
2. NCCNC(=O)c1cc(-c2c[nH]c3ccc(Br)cc23)nc2cc(I)ccc12
3. NCc1ccc(CNC(=O)c2cc(-c3c[nH]c4ccc(Br)cc34)nc3ccc(C#CCNC4CCCCC4)cc23)cc1

1: > 25 µg/mL; 2: < 7 µg/mL; 3: < 7 µg/mL
